Test system: CAKI-1 renal
Assay: NCI tumour cell line growth inhibition, 48 h
property_name: TGI

Examples with their reported TGI follow.
# molecule, assayed_target, TGI
data = [
    ("COc1cccc2c1[C@]1(O)C(O)CCCC21 (stereo not given in full)", "CAKI-1 renal", "> 100 µM"),
    ("Cc1nnc(CC#N)n1NC(=O)CC#N", "CAKI-1 renal", "> 100 µM"),
    ("Oc1ccc2ccccc2c1OCc1nnc(CCCCCCCCc2nnc(COc3c(O)ccc4ccccc34)o2)o1", "CAKI-1 renal", "> 100 µM"),
]

*Q* Consider the molecule CN(C)c1ccc(/C=C2\C[C@H]3[C@@H]4CCc5cc(O)ccc5[C@H]4CC[C@]3(C)C2=O)cc1 and give its measured TGI.
*A* > 100 µM

*Q* Consider the molecule COc1cc(-c2[o+]c3cc(O)cc(OC4OC(CO)C(O)C(O)C4O)c3cc2OC2OC(CO)C(O)C(O)C2O)cc(OC)c1O (stereo not given) and give its measured TGI.
*A* > 100 µM

*Q* Consider the molecule N#Cc1c(C#N)c(-c2ccccc2)n(/N=C\c2ccccc2)c1N and give its measured TGI.
*A* > 100 µM

*Q* Consider the molecule O=C(Nc1cccc([N+](=O)[O-])c1)c1cc2ccccc2cc1O and give its measured TGI.
*A* 4.88 µM

*Q* Consider the molecule Cc1cc(Cl)ccc1NC(=O)CCCC(=O)C(C(=O)c1ccccc1)c1ccccc1 (stereo not given) and give its measured TGI.
*A* > 100 µM

*Q* Consider the molecule CCCCCCCCCCCCCCC(O)C1CCC(C(O)CCC(O)CCCCCC(O)CC2=CC(C)OC2=O)O1 (stereo not given) and give its measured TGI.
*A* 20.8 µM

*Q* Consider the molecule COc1ccc(S(=O)(=O)n2c3ccccc3n3ncc(-c4nnc(C)o4)c23)cc1 and give its measured TGI.
*A* > 100 µM

====

System: NCI-H23 lung
Assay: NCI tumour cell line growth inhibition, 48 h
Known log10 of TGI of a selection of compounds
Heads up: the numbers are on a log10 scale; they represent TGI in µM.

Examples with their reported log10 of TGI follow.
# compound, log10 of TGI
records = [
    ("c1ccc(-c2cnc3nc4ccccc4nc3n2)cc1", 1.34),
    ("C=C1C(=O)O[C@H]2C3C(=C(C)CC[C@@H]12)C(=O)[C@@H]1OC31C (stereo not given in full)", 0.81),
    ("COc1ccc(NC(=S)NNC(=O)c2cc(-c3ccccc3)nc3ccccc23)cc1", 1.49),
    ("O=S(=O)(/N=C1/SC(=Nc2ccccc2)N(c2ccccc2)/C1=N/S(=O)(=O)c1ccccc1)c1ccccc1", 1.54),
    ("COc1ccc(S(=O)(=O)n2c3ccccc3n3ncc(-c4nnc(C)o4)c23)cc1", 1.88),
]

*Q* Consider the compound N#Cc1c(-c2ccc(Cl)cc2)cc(-c2nc3ccccc3[nH]2)nc1N and give its measured log10 of TGI.
*A* 1.55

====

Test system: MOLT-4 leukemia
Assay: NCI tumour cell line growth inhibition, 48 h; in the data active means GI50 below about 0.43 µM; inactive means the rest
Permitted responses: YES (active), NO (inactive)

# compound, class
data = [
    ("C=C1C[C@@H]2[C@H](CC[C@]3(C)C(=O)CC[C@@H]23)[C@@]2(C)C=CC(=O)C=C12", "NO"),
    ("Cc1nc2sc(C(=O)Nc3cccc(Cl)c3C)c(N)c2cc1C(C)O (centres undefined)", "YES"),
    ("O[C@H](CN1CC1)[C@@H](O)CN1CC1", "NO"),
    ("CCN(CC)CCOc1nc2cc(OC)c(OC)cc2c2c1-c1ccc(OC)cc1C2=O", "NO"),
    ("O=C(Nc1ccc(-c2ccnc(Nc3ccc(N4CCOCC4)cc3)n2)cc1)C1CCCN1 (centres undefined)", "NO"),
    ("COc1cc(/C=C\\c2cc(OC)c(OC)c(OC)c2)cc(NS(=O)(=O)c2cccc(Cl)c2)c1OC", "YES"),
    ("CCC(=O)OC1=CN2C(=NC(c3ccc(N)cc3)=CC2c2cc(OC)c(OC)c(OC)c2)S1 (centres undefined)", "NO"),
    ("FC(F)(F)c1cc(NC2=NCCN=C(Nc3cc(C(F)(F)F)cc(C(F)(F)F)c3)SS2)cc(C(F)(F)F)c1", "NO"),
]

*Q* Lab log entry: Cc1ccc(S(=O)(=O)c2ccsc2N)cc1 — outcome as called in the assay?
*A* NO

*Q* Lab log entry: Cc1cc(S(=O)(=O)Nc2nc3cc(-c4ccsc4)sc3c(=O)n2N)c(S)cc1Cl — outcome as called in the assay?
*A* NO

*Q* Lab log entry: C#CCOc1cccc(Nc2ncc3ncn(C4CCN(C(=O)CCl)C4)c3n2)c1 (centres undefined) — outcome as called in the assay?
*A* NO

*Q* Lab log entry: O=C(O)c1ccc2cccnc2c1O — outcome as called in the assay?
*A* NO

*Q* Lab log entry: C[C@H]1CCC/C=C/[C@@H]2C[C@H](O)C[C@H]2[C@H](O)[C@@H](SC2OC(CO)C(O)C(O)C2O)CC(=O)O1 (some centres undefined) — outcome as called in the assay?
*A* NO

*Q* Lab log entry: N#Cc1ccc2c(c1)C(=O)c1c-2n(CCCN=[N+]=[N-])c(=O)c2cc([N+](=O)[O-])ccc12 — outcome as called in the assay?
*A* NO
